A collection of compounds and their measured solvation free energy, 298 K
test: solvent given as SMILES; settings: in CCCCOCCCC
Experimental Endpoint: solvation free energy, 298 K (kJ/mol)

- NC(=O)c1ccccc1O: -44.1
- Oc1c(I)cc(I)cc1I: -59.2
- CCCCCCCCC: -24.9
- CCc1ccc2c(c1)C(=O)c1ccccc1C2=O: -52.7
- c1ccc2cc3ccccc3cc2c1: -44.5
- CC(C)=O: -12.7
- c1ccc(-c2ccccc2)cc1: -37
- CCCCCCC: -19.1
- CCCCCC: -16.2
- O=[N+]([O-])c1cccc2ccccc12: -42.9
- C1CCOC1: -15.9
- CCOCC: -13.5
- CC(C)C(C)C(C)C: -20.4
- CC(Cl)(Cl)Cl: -17.1
- CCO: -13.9
- CC(C)CCC(C)C: -20.1
- CCCCCCl: -20
- c1cc2ccc3cccc4ccc(c1)c2c34: -50.8
- CC#N: -12.1

----------
experiment: solvent given as SMILES; conditions: in CCCC(C)O
A collection of compounds and their measured solvation free energy, 298 K
Experimental Endpoint: solvation free energy, 298 K (kcal/mol)

* c1cc2ccc3cccc4ccc(c1)c2c34 | -11.5
* CCc1ccc2c(c1)C(=O)c1ccccc1C2=O | -12.3
* C=CC | -1.31
* Cc1cc(C)c(C)cc1C | -6.69
* c1ccc2cc3ccccc3cc2c1 | -9.99
* O=[N+]([O-])c1cccc2ccccc12 | -9.83
* O=C(O)c1cc([N+](=O)[O-])ccc1Cl | -12.8
* NC(=O)c1ccccc1O | -12.1

----------
test: solvent given as SMILES; conditions: in CC(C)=O
Experimental Endpoint: solvation free energy, 298 K (kcal/mol)

• O=C(O)c1cccc([N+](=O)[O-])c1C(=O)O = -18.5
• c1ccc2ccccc2c1 = -7.84
• c1ccc2cc3ccccc3cc2c1 = -11.2
• C[N+](=O)[O-] = -5.32
• CCCCCC = -3.26
• C1CCOC1 = -4.12
• CCO = -4.54
• CI = -3.56
• CC(C)c1ccccc1 = -5.89
• CCCCCCCCCCCCCCCCCCCCCCC = -13.4
• CCI = -4
• CC(Cl)(Cl)Cl = -4.23
• CCCCCCCCC = -4.99
• C=COC(C)=O = -4.46
• CCCCCCCC = -4.41
• C#C = -1.83
• CCCCCCC = -3.84
• ClCCCCl = -5.63
• CN(C)C=O = -6.43
• NC(=O)c1ccccc1O = -13
• C=C(C)c1ccccc1 = -6.37
• C#CCC = -2.99
• c1cc2ccc3cccc4ccc(c1)c2c34 = -12.7
• CC=CC = -2.47
• C=C(C)C = -2.37
• CCCCC = -2.73
• CC(C)C(C)C(C)C = -4.14
• FC(F)(F)C(Cl)Br (centres undefined) = -4.77
• c1ccncc1 = -5.42
• CC#N = -3.83
• CCOCC = -3.25
• CCCCCCl = -4.86
• CCC(C)C(=O)OC1CC(C)C=C2C=CC(C)C(CCC3CC(O)CC(=O)O3)C21 (centres undefined) = -25.7
• CC(C)CCC(C)C = -4.03

----------
assay: solvent given as SMILES; details: in ClCCCl
Label scheme for solvation free energy, 298 K: interval 1 (below -5 kcal/mol), interval 2 (-5 kcal/mol to below -4 kcal/mol), interval 3 (-4 kcal/mol or more)

* ClCC(Cl)Cl | interval 1
* c1ccc(-c2ccccc2)cc1 | interval 1
* CCCCl | interval 3
* c1cc2ccc3cccc4ccc(c1)c2c34 | interval 1
* CC(Cl)(Cl)Cl | interval 2
* CCCCCCCC | interval 2
* C=CC(C)C | interval 3
* CC#N | interval 2
* CCI | interval 2
* CC(C)=O | interval 2
* CI | interval 3
* CCCCC | interval 3
* CCOC(C)OCC | interval 1
* CCCCCCCCCCCCCCCC | interval 1
* C1CCOC1 | interval 2
* CCCCCC | interval 3
* CC(C)CCC(C)C | interval 2
* CCOCC | interval 3
* CCOC(C)=O | interval 2

----------
assay: solvent given as SMILES; details: in CC#N
Experimental Endpoint: solvation free energy, 298 K (kcal/mol)

• CC(C)C(C)C(C)C = -3.46
• CCC(C)C(C)C (configuration not stated) = -3.2
• CCCC(C)(C)C = -2.7
• C=CC(C)CC (configuration not stated) = -2.7
• C[N+](=O)[O-] = -5.63
• CCI = -3.81
• CCCCCC = -2.63
• CCC(C)O (configuration not stated) = -4.82
• CC(C)c1ccccc1 = -5.53
• CCCCCCC = -3.18
• CCc1ccccc1 = -5.19
• CC(C)CCC(C)C = -3.31
• [N]=O = 0.63
• CCCCC = -2.15
• CCCCCCO = -6.44
• CC(C)=O = -4.32
• CCCCCCCCC = -4.12
• CCC(CC)CC = -3.02
• CCC(C)CC = -2.58
• CCCCCCCC = -3.63
• CC(C)C(C)C = -2.4
• CCO = -4.38

----------
experiment: solvent given as SMILES; conditions: in CCCCCO
A collection of compounds and their measured solvation free energy, 298 K
Experimental Endpoint: solvation free energy, 298 K (kJ/mol)

* CCOC(C)=O | -16.2
* COc1ccc(C(=O)O)cc1 | -48.6
* O=C(O)c1cccc([N+](=O)[O-])c1C(=O)O | -74.5
* CCCCCC | -13.9
* O=S(=O)(c1ccccc1)c1ccccc1 | -55.5
* C=C(C)C | -8.41
* O=C(O)Cc1ccccc1Nc1c(Cl)cccc1Cl | -76.9
* CCC(C)CC | -13.9
* CC(C)=O | -14.2

----------
experiment: solvent given as SMILES; conditions: in CCCCCCCCO
With a cut-off of -5 kcal/mol, any solvation free energy, 298 K strictly below it is called criterion met; any solvation free energy, 298 K meeting it or above is called criterion not met.

- CCCCCCC: criterion not met
- Cc1c(C)c(C)c(C)c(C)c1C: criterion met
- Clc1cc(Cl)c(-c2cc(Cl)c(Cl)c(Cl)c2Cl)cc1Cl: criterion met
- C1CCOCC1: criterion not met
- CCC(C)(C)OC: criterion not met
- COc1ccc(C(=O)O)cc1: criterion met
- CC(=O)C(C)C: criterion not met
- ClC1C(Cl)C(Cl)C(Cl)C(Cl)C1Cl (centres undefined): criterion met
- C=CC: criterion not met
- Clc1cccc(Cl)c1Cl: criterion met
- ClCC(Cl)Cl: criterion not met
- CC(C)c1ccccc1: criterion met
- Nc1ccc(C(=O)O)cc1: criterion met
- FC(F)(F)F: criterion not met
- Clc1cc(Cl)c(Cl)c(Cl)c1Cl: criterion met
- CCCCCC: criterion not met

----------
A collection of compounds and their measured solvation free energy, 298 K
assay: solvent given as SMILES; conditions: in CCCCCCO
Experimental Endpoint: solvation free energy, 298 K (kcal/mol)

- O=C(O)c1ccc(Cl)c([N+](=O)[O-])c1: -13.1
- O=C(O)c1cc([N+](=O)[O-])ccc1Cl: -12.6
- CCC(C)C(=O)OC1CC(C)C=C2C=CC(C)C(CCC3CC(O)CC(=O)O3)C21 (stereo unspecified): -24.8
- Cc1cc(C)c(C)cc1C: -6.75
- O=c1[nH]c2ccccc2n1C1CCN(CCCC(c2ccc(F)cc2)c2ccc(F)cc2)CC1: -26.7
- c1ccc2cc3ccccc3cc2c1: -10.3

----------
assay: solvent given as SMILES; conditions: in CCCCOC(C)=O
With a cut-off of -10 kcal/mol, any solvation free energy, 298 K strictly below it is called true (1); any solvation free energy, 298 K meeting it or above is called false (0).

- O=C(O)c1cccc([N+](=O)[O-])c1: true (1)
- CCc1ccc2c(c1)C(=O)c1ccccc1C2=O: true (1)
- O=C(CCCN1CCC(O)(c2ccc(Cl)cc2)CC1)c1ccc(F)cc1: true (1)
- CCCCCC: false (0)
- CCC(C)C(=O)OC1CC(C)C=C2C=CC(C)C(CCC3CC(O)CC(=O)O3)C21 (stereo unspecified): true (1)
- CCCCC: false (0)
- CC(C)CCC(C)C: false (0)
- CCCCCCCCCCCCCCCCCCCCCC: true (1)
- O=C(O)c1ccc(Cl)c([N+](=O)[O-])c1: true (1)
- CCCCCCCCC: false (0)
- CCCCCCO: false (0)
- CCCCCCCCCCCCCCCCCCCC: true (1)
- NC(=O)c1ccccc1O: true (1)
- c1cc2ccc3cccc4ccc(c1)c2c34: true (1)
- CCCCCCC: false (0)
- CCC(C)O (stereo unspecified): false (0)
